- test system: SIRT1 (Homo sapiens, UniProt Q96EB6)
- Sequence (Q96EB6 whole entry): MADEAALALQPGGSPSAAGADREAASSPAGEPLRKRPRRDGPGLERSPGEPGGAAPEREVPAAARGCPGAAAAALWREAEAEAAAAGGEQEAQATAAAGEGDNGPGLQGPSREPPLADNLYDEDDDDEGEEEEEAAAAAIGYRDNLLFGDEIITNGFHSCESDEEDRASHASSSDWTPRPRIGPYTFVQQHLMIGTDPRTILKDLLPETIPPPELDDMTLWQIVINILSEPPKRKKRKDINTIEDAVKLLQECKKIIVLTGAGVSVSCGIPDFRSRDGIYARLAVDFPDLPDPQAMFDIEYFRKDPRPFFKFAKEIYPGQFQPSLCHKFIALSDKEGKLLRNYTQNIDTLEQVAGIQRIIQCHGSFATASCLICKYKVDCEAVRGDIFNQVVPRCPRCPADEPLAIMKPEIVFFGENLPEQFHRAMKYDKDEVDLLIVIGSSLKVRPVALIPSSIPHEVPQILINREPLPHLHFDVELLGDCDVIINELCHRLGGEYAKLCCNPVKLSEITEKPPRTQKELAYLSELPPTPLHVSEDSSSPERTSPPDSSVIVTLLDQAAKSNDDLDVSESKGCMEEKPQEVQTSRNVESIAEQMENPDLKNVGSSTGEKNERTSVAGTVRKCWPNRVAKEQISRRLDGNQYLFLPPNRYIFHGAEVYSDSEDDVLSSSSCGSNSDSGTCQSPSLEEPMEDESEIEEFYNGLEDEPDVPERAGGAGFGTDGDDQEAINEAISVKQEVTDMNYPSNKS
- test method notes: Mass spectrometry based SIRT1 deacetylase activation assay (acetylated p53-derived peptide substrate)
- Format: biochemical
- assay setup: 0.5 μM peptide substrate, 120 μM βNAD+, 10 nM SIRT1, 25 min at 25° C., read-out: EC1.5
Would you mind telling me the reported EC1.5 of each entry?

O=C(Nc1nccs1)c1cccc2[nH]c(-c3ccc(N4CCCC4)cc3C(F)(F)F)nc12 [Compound 572] has a reported EC1.5 of 1000 to 25000 nM

Documented EC1.5 of Cc1cc(NC(=O)c2cccc3[nH]c(-c4cccc(N5CCOCC5)c4)nc23)n(C)n1 [Compound 399] : < 1000 nM

Lab book: EC1.5 of O=C(Nc1nccs1)c1cccc2[nH]c(-c3cccc(OC4CCNC4)c3)nc12 (centres unmarked) [Compound 462] noted as < 1000 nM

Recorded EC1.5 (compound O=C(Nc1nccs1)c1cccc2[nH]c(-c3ccccc3OCCN3CCCC3)nc12 [Compound 482] ): 1000 to 25000 nM

Sample O=C(Nc1ccccn1)c1cccc2[nH]c(-c3cc(F)ccc3OCCN3CCOCC3)nc12 [Compound 584] ; EC1.5 observed: 1000 to 25000 nM

Looking up O=C(Nc1nccs1)c1cccc2[nH]c(-c3cc(N4CCOCC4)ccc3C(F)(F)F)nc12 [Compound 448] , I found its EC1.5 recorded as < 1000 nM

Recorded result, O=C(NCc1ccccn1)c1cccc2[nH]c(-c3ccnn3-c3ccccc3)nc12 [Compound 468] , EC1.5: > 25000 nM

Consider CC(C)N1CCN(CCOc2ccccc2-c2nc3c(C(=O)Nc4nccs4)cccc3[nH]2)CC1 [Compound 485] . Its measured EC1.5 is 1000 to 25000 nM

// EC1.5 lookup, compound = Cc1cc(NC(=O)c2cccc3[nH]c(-c4cnc5c(c4)OCCN5C)nc23)n(C)n1 [Compound 523] , result: > 25000 nM

In plain terms, Cc1cc(NC(=O)c2cccc3[nH]c(-c4ccnn4-c4ccccc4)nc23)n(C)n1 [Compound 423] has a documented EC1.5 of 1000 to 25000 nM

The measured EC1.5 associated with Cc1cnc(NC(=O)c2cccc3[nH]c(-c4ccccc4C(F)F)nc23)s1 [Compound 515] reads < 1000 nM

// sample O=C1COc2ccc(-c3nc4c(C(=O)Nc5ccccn5)cccc4[nH]3)cc2N1 [Compound 565] , its EC1.5 was 1000 to 25000 nM

// recorded EC1.5 for O=C(Nc1nccs1)c1cccc2[nH]c(-c3cc(Cl)ccc3OCCN3CCOCC3)nc12 [Compound 501] : < 1000 nM

Consider Cc1cc(NC(=O)c2cccc3[nH]c(-c4ccc(N5CCOCC5)cc4C(F)(F)F)nc23)n(C)n1 [Compound 592] . Its measured EC1.5 is < 1000 nM

Per the record, FC(F)(F)c1ccccc1-c1nc2c(Nc3ccccn3)cccc2[nH]1 [Compound 582] has EC1.5 of > 25000 nM

# EC1.5 (compound: CS(=O)(=O)c1cc(Cl)ccc1-c1nc2c(C(=O)Nc3nccs3)cccc2[nH]1 [Compound 520] ) is 1000 to 25000 nM

Per the records, this compound ( O=C(Nc1cccnn1)c1cccc2[nH]c(-c3ccc(Cl)cc3C(F)(F)F)nc12 [Compound 432] ) has EC1.5 equal to < 1000 nM

EC1.5 measured on O=C(Nc1ccccn1)c1cccc2[nH]c(-c3cc(F)ccc3C(F)F)nc12 [Compound 513] = < 1000 nM

Noted for O=C1COc2ccc(-c3nc4c(C(=O)Nc5nccs5)cccc4[nH]3)cc2N1 [Compound 424] : its EC1.5 reads < 1000 nM

O=C(Nc1cccc(CN2CCCC2)c1)c1cccc2[nH]c(-c3ccc(Cl)cc3C(F)(F)F)nc12 [Compound 490] has a reported EC1.5 of < 1000 nM

The compound listed as Cc1cc(NC(=O)c2cccc3[nH]c(-c4ccc(Cl)cc4C(F)(F)F)nc23)no1 [Compound 452] shows EC1.5 equal to < 1000 nM

response.value for O=C(Nc1nccs1)c1cccc2[nH]c(-c3cc(F)cc(F)c3OCCN3CCOCC3)nc12 [Compound 585] (field: EC1.5) = 1000 to 25000 nM

For record CC(C)N1CCN(c2cccc(-c3nc4c(C(=O)Nc5nccs5)cccc4[nH]3)c2)CC1 [Compound 529] the listed EC1.5 is < 1000 nM

Looking up CS(=O)(=O)c1cc(Cl)ccc1-c1nc2c(C(=O)Nc3cccnc3)cccc2[nH]1 [Compound 521] , I found its EC1.5 recorded as 1000 to 25000 nM

EC1.5 reported for this compound Cc1ccc(OCCN2CCOCC2)c(-c2nc3c(C(=O)Nc4ccccn4)cccc3[nH]2)c1 [Compound 546] : 1000 to 25000 nM

Sure, the documented EC1.5 for CC(C)(C)NCCOc1ccccc1-c1nc2c(C(=O)Nc3nccs3)cccc2[nH]1 [Compound 580] is 1000 to 25000 nM

EC1.5 in this record for O=C(Nc1nccs1)c1cccc2[nH]c(-c3ccccc3OCCN3CC[C@@H](F)C3)nc12 [Compound 507] : 1000 to 25000 nM

So, Cc1cc(C)nc(NC(=O)c2cccc3[nH]c(-c4cnc5c(c4)OCCN5C)nc23)c1 [Compound 461] ? Its EC1.5 was < 1000 nM

The measured EC1.5 associated with O=C(Nc1nccs1)c1cccc2[nH]c(-c3ccc(N4CCOCC4)cc3C(F)F)nc12 [Compound 551] reads < 1000 nM

Looking up O=C(NC1CCOCC1)c1cccc2[nH]c(-c3cc(F)ccc3C(F)(F)F)nc12 [Compound 437] , I see its EC1.5 listed as > 25000 nM

// field: EC1.5; key: O=C(Nc1cccnc1)c1cccc2[nH]c(-c3ccnc(N4CCCC4)c3)nc12 [Compound 568] ; value = > 25000 nM

Per the record, O=C(Nc1cccnc1)c1cccc2[nH]c(-c3cc(N4CCOCC4)ccc3C(F)(F)F)nc12 [Compound 450] has EC1.5 of < 1000 nM

Source: patent US8846947B2
